- Tested on: NCI-H460
- ASSAY DETAILS: In vitro percent of proliferation of vehicle treated NCI-H460 human lung cell lines was determined at 0.0010 M concentration
- Assay type: functional
// NB: equality with 60% counts as 0.0; only Proliferation strictly below is 1.0

- SMILES STRING: "O=C(Oc1cccc(Cl)c1)c1ccccc1Nc1ccnc(C(F)(F)F)c1"
  CLASS LABEL: 1.0
- SMILES STRING: "O=C(Oc1cccnc1)c1ccccc1Nc1ccnc(C(F)(F)F)c1"
  CLASS LABEL: 1.0
- SMILES STRING: "O=C(Oc1c(Cl)cc(Cl)cc1Cl)c1ccccc1Nc1ccnc(C(F)(F)F)c1"
  CLASS LABEL: 1.0
- SMILES STRING: "CSc1ccc(OC(=O)c2ccccc2Nc2ccnc(C(F)(F)F)c2)cc1"
  CLASS LABEL: 0.0
- SMILES STRING: "COc1cccc(OC(=O)c2ccccc2Nc2ccnc(C(F)(F)F)c2)c1"
  CLASS LABEL: 1.0
- SMILES STRING: "O=C(Nc1ccccn1)c1ccccc1Nc1ccnc(C(F)(F)F)c1"
  CLASS LABEL: 0.0
- SMILES STRING: "O=C(Oc1ccccc1Cl)c1ccccc1Nc1ccnc(C(F)(F)F)c1"
  CLASS LABEL: 1.0
- SMILES STRING: "COC(=O)c1ccccc1Nc1ccnc(C(F)(F)F)c1"
  CLASS LABEL: 0.0
- SMILES STRING: "O=C(Oc1ccc(Cl)cc1Cl)c1ccccc1Nc1ccnc(C(F)(F)F)c1"
  CLASS LABEL: 1.0
- SMILES STRING: "O=C(Nc1ccncc1)c1ccccc1Nc1ccnc(C(F)(F)F)c1"
  CLASS LABEL: 0.0

Ask: Proliferation under 60%? Item: O=C(O)c1ccccc1Nc1ccnc(C(F)(F)F)c1
Result: 0.0

Ask: Bench note: check whether COc1ccc(OC(=O)c2ccccc2Nc2ccnc(C(F)(F)F)c2)cc1 shows Proliferation below 60%
Result: 1.0

Ask: Take the compound COCCCNC(=O)c1ccccc1Nc1ccnc(C(F)(F)F)c1 and say whether its Proliferation is less than 60%.
Result: 0.0

Ask: Given the entry O=C(Nc1cccnc1)c1ccccc1Nc1ccnc(C(F)(F)F)c1 , would its reported Proliferation be below 60%?
Result: 0.0

Ask: is_below(Proliferation, 60%) for O=C(Oc1ccc(Cl)cc1)c1ccccc1Nc1ccnc(C(F)(F)F)c1 ?
Result: 1.0

Ask: # strict comparison: is reported Proliferation < 60%? input = CCOC(=O)CNC(=O)c1ccccc1Nc1ccnc(C(F)(F)F)c1
Result: 1.0

Ask: Input CCOC(=O)c1ccccc1Nc1ccnc(C(F)(F)F)c1 ; condition: Proliferation strictly below 60%. Does it hold?
Result: 0.0
